Values from PubChem BioAssay (Tox21)

Procedure Text: qHTS assay to identify small molecule antagonists of the estrogen receptor alpha (ER-alpha) signaling pathway using the BG1 cell line (AID 743080);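 note: BG1 cells stimulated with 17beta-estradiol alongside compound; nearly all actives have a fitted effect of over 25% in size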
Experimental Context: BG1Luc4E2 ERE-luciferase antagonist mode, luminescence; series mostly up to 70.3 µM
Description: National Center for Advancing Translational Sciences [NCATS] NIH Chemical Genomics Center [NCGC] U.S. Environmental Protection Agency [EPA] National Institutes of Environmental Health Sciences [NIEHS] National Toxicology Program [NTP] U.S. Food and Drug Administration [FDA] Estrogen receptor (ER), a nuclear hormone receptor, plays an important role in development, metabolic homeostasis and reproduction. […]
Records with an inconclusive call do not appear. The source made the active and inactive calls. Calls come from the whole dose curve.
Answer with one of the outcomes 1 (active), -1 (inactive)

Reference set, count: 2
Compound Smiles	Group Label
CCCCOC(=O)COC(=O)c1ccccc1C(=O)OCCCC	-1
CCOP(=S)(OCC)SCn1c(=O)oc2cc(Cl)ccc21	-1

[Q] Could you kindly confirm the outcome this assay logged for CNC(=O)Oc1cccc2c1OC(C)(C)C2 ?
[A] -1

[Q] Could you kindly confirm the outcome this assay logged for CCC/C=N/O ?
[A] -1

[Q] Could you kindly confirm the outcome this assay logged for COc1ccc(C=O)cc1OC ?
[A] -1

----------
Procedure Text: qHTS assay for identifying genotoxic compounds that show differential cytotoxicity against isogenic chicken DT40 cell lines with known DNA damage response pathways - wild type cell line (AID 743012); note: nearly all actives have a fitted effect of over 60% in size
Experimental Context: DT40 wild type chicken cells viability, CellTiter-Glo, 40 h; series mostly up to 68.4 µM
Results filed as inconclusive are left out. Calls of active or inactive are those of the source. Calls follow the shape of the dose curve; as a rule, active = well fitted cell-killing curve with a large enough effect in the repeat runs; inconclusive = weak or mixed curves, or effect the other way; inactive = no such curve, though single readings can be large or run the other way.
Answer with one of the outcomes active, inactive

Reference set, count: 10
Compound	Group Label
CCOC(=O)c1ccccc1N	inactive
CC1(C)Cc2cccc(O)c2O1	inactive
NN=C(N)N	inactive
CCCCOC(=O)COC(=O)c1ccccc1C(=O)OCCCC	inactive
[Cl-].[Cl-].[Cl-].[Fe+3]	inactive
CC1CC(=O)O1 (stereo not drawn)	inactive
[CH3][Sn]([Cl])([Cl])[Cl]	inactive
CCOS(=O)(=O)OCC	inactive
Cc1ccc([N+](=O)[O-])cc1	inactive
COc1ccc(O)c(C(C)(C)C)c1	inactive

From here, focus on the item given below.
[Q] Could you kindly confirm the outcome this assay logged for ClCc1ccccn1 ?
[A] inactive

----------
Procedure Text: qHTS assay to identify small molecule antagonists of the thyroid receptor (TR) signaling pathway (AID 743065); note: nearly all actives have a fitted effect of over 55% in size; note: potency is the fitted concentration of half-maximal effect
Experimental Context: GH3.TRE-Luc, T3-stimulated luciferase inhibition, 23.5 h; series mostly up to 70.3 µM
Records with an inconclusive call do not appear. Activity calls are given as the source filed them. The call rests on the fitted dose curve; in most records, active means well fitted inhibition curve with a large enough effect in the repeat runs; inconclusive means weak or mixed curves; inactive means no such curve, though single readings can be large or run the other way.
Reported Metric: Potency

Examples with their reported Potency follow.
Molecule	Meas Value
NN=C(N)N	inactive
O=C(O)CF	inactive
Clc1ccccc1-c1nnc(-c2ccccc2Cl)nn1	inactive
CC1(C)Cc2cccc(O)c2O1	inactive

[Q] Please look at this molecule and report its Potency: O=C1Nc2ccc(Cl)cc2C(c2ccccc2)=NC1O (centres undefined)
[A] 54.9 µM (active)

[Q] Please look at this molecule and report its Potency: O=P(OCCCl)(OCCCl)OCCCl
[A] inactive

[Q] Please look at this molecule and report its Potency: CCCCCCCCCc1ccc(O)cc1
[A] 30.9 µM (active)

[Q] Please look at this molecule and report its Potency: CC(C)Nc1nc(Cl)nc(NC(C)C)n1
[A] inactive

[Q] Please look at this molecule and report its Potency: N#Cc1cccnc1
[A] inactive
